Kindly state pEC50 for each of the entries shown.
- Test system: Purified human neutrophils
- protocol: Luminol enhanced chemiluminescence (neutrophil oxidative activity), fMLP stimulated
- Type: cell-based
- condition-label: Homo sapiens, Neutrophil; read-out: Functional
pEC50: −log10 of the molar value.

Prompt: Output pEC50 of Cc1ccc(OC(=O)N2CCC(CC#Cc3nc(N)c4ncn([C@@H]5O[C@H](CO)[C@@H](O)[C@H]5O)c4n3)CC2)cc1
Response: > 8.00

Prompt: Output pEC50 of COc1ccccc1OC(=O)N1CCC(CC#Cc2nc(N)c3ncn([C@@H]4O[C@H](C(=O)NC5CC5)C(O)[C@@H]4O)c3n2)CC1 (stereo partly drawn)
Response: > 8.00

Prompt: Output pEC50 of CCNC(=O)[C@H]1O[C@@H](n2cnc3c(N)nc(C#CCC4CCN(C(=O)Oc5ccc(C(=O)OC)cc5)CC4)nc32)[C@@H](O)C1O (stereo partly drawn)
Response: > 8.00

Prompt: Output pEC50 of Nc1nc(C#CCC2CCN(C(=O)OCCOCc3ccccc3)CC2)nc2c1ncn2[C@@H]1O[C@H](C(=O)NC2CC2)C(O)[C@@H]1O (stereo partly drawn)
Response: > 8.00

Prompt: Output pEC50 of Nc1nc(C#CCC2CCN(C(=O)Oc3ccc(C(=O)O)cc3)CC2)nc2c1ncn2[C@@H]1O[C@H](C(=O)NC2CC2)C(O)[C@@H]1O (stereo partly drawn)
Response: > 7.00

Prompt: Output pEC50 of Nc1nc(C#CCC2CCN(C(=O)Oc3ccc(F)c(F)c3)CC2)nc2c1ncn2[C@@H]1O[C@H](CO)[C@@H](O)[C@H]1O
Response: > 8.00

----------
- assay-system: human A3 AR (Homo sapiens)
- Construct: expressed in transfected cells; membranes
- protocol: Radioligand competition binding with 125I-ABA, membranes of HEK 293 cells stably expressing the receptor
- condition-label: Ki derived from IC50, class symbols
- Experimental: Cell culture and membrane preparation. Sf9 cells were cultured in Grace's medium supplemented with 10% fetal bovine serum, 2.5 μg/ml amphotericin B and 50 μg/ml gentamycin in an atmosphere of 50% N2/50% O2. Viral infection was performed at a density of 2.5×10^6 cells/mL with a multiplicity of infection of two for each virus used. […] Radioligand Binding Assays. […] Nonspecific binding was measured in the presence of 50 μM NECA. […]
measurement-label: Ki

Prompt: Output Ki of CCNC(=O)[C@H]1O[C@@H](n2cnc3c(N)nc(C#CCC4CCN(C(=O)OCc5ccc([N+](=O)[O-])cc5)CC4)nc32)[C@@H](O)C1O (stereo partly drawn)
Response: < 10 nM

Prompt: Output Ki of CCNC(=O)[C@H]1O[C@@H](n2cnc3c(N)nc(C#CCC4CCN(C(=O)Oc5ccccc5Cl)CC4)nc32)[C@@H](O)C1O (stereo partly drawn)
Response: < 10 nM

Prompt: Output Ki of Nc1nc(C#CCC2CCN(C(=O)Oc3ccc(F)c(F)c3)CC2)nc2c1ncn2[C@@H]1O[C@H](CO)[C@@H](O)[C@H]1O
Response: < 100 nM

----------
- assay-system: human A3 AR (Homo sapiens, UniProt P0DMS8)
- Construct: expressed in transfected cells; membranes
- Sequence (P0DMS8 1-318): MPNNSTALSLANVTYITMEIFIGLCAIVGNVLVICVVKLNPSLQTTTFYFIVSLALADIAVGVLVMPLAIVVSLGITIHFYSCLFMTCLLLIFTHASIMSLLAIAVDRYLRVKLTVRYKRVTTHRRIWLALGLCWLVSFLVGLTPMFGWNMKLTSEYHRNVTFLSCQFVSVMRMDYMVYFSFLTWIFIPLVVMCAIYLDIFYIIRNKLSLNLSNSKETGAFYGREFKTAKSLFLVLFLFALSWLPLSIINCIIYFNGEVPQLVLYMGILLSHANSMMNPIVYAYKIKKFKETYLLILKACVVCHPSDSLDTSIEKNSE
- protocol: Radioligand competition binding with 125I-ABA, membranes of HEK 293 cells stably expressing the receptor
- condition-label: Ki derived from IC50, class symbols
pKi: −log10 of the molar value.
Kindly state pKi for each of the entries shown.

Prompt: Output pKi of CCNC(=O)[C@H]1O[C@@H](n2cnc3c(N)nc(C#CCC4CCN(C(=O)Oc5ccc(F)c(F)c5)CC4)nc32)[C@@H](O)C1O (stereo partly drawn) [Compound 50]
Response: > 7.00

Prompt: Output pKi of N=C(Oc1ccc(F)cc1)N1CCC(CC#Cc2nc(N)c3ncn([C@@H]4O[C@H](C(=O)NC5CC5)[C@@H](O)[C@H]4O)c3n2)CC1 [Compound 41]
Response: < 7.00

Prompt: Output pKi of Nc1nc(C#CCC2CCN(C(=O)Oc3ccc([N+](=O)[O-])cc3)CC2)nc2c1ncn2[C@@H]1O[C@H](C(=O)NC2CC2)C(O)[C@@H]1O (stereo partly drawn) [Compound 10]
Response: > 7.00

Prompt: Output pKi of N=C(Oc1ccc(Cl)cc1)N1CCC(CC#Cc2nc(N)c3ncn([C@@H]4O[C@H](C(=O)NC5CC5)[C@@H](O)[C@H]4O)c3n2)CC1 [Compound 42]
Response: < 7.00

Prompt: Output pKi of CCNC(=O)[C@H]1O[C@@H](n2cnc3c(N)nc(C#CCC4CCN(C(=O)Oc5ccc(C(=O)OC)cc5)CC4)nc32)[C@@H](O)C1O (stereo partly drawn) [Compound 25]
Response: > 7.00

Prompt: Output pKi of Cc1ccc(OC(=O)N2CCC(CC#Cc3nc(N)c4ncn([C@@H]5O[C@H](C(=O)NC6CC6)[C@@H](O)[C@H]5O)c4n3)CC2)cc1C [Compound 47]
Response: > 7.00

----------
- Tested on: Purified human neutrophils
- protocol: Luminol enhanced chemiluminescence (neutrophil oxidative activity), fMLP stimulated
- Format: cell-based
- condition-label: EC50 of peak chemiluminescence, human PMN, rolipram 100 nM, fMLP, three donors; class symbols; read-out: Functional
Kindly state EC50 for each of the entries shown.

Prompt: Output EC50 of N=C(Oc1ccc(Cl)cc1)N1CCC(CC#Cc2nc(N)c3ncn([C@@H]4O[C@H](C(=O)NC5CC5)[C@@H](O)[C@H]4O)c3n2)CC1
Response: > 100 nM

Prompt: Output EC50 of N=C(Oc1ccc(F)cc1)N1CCC(CC#Cc2nc(N)c3ncn([C@@H]4O[C@H](C(=O)NC5CC5)[C@@H](O)[C@H]4O)c3n2)CC1
Response: < 10 nM

Prompt: Output EC50 of Cc1ccc(OC(=O)N2CCC(CC#Cc3nc(N)c4ncn([C@@H]5O[C@H](C(=O)NC6CC6)[C@@H](O)[C@H]5O)c4n3)CC2)cc1C
Response: < 1 nM

----------
- assay-system: human A3 AR (Homo sapiens)
- Construct: expressed in transfected cells; membranes
- Sequence (P0DMS8 1-318): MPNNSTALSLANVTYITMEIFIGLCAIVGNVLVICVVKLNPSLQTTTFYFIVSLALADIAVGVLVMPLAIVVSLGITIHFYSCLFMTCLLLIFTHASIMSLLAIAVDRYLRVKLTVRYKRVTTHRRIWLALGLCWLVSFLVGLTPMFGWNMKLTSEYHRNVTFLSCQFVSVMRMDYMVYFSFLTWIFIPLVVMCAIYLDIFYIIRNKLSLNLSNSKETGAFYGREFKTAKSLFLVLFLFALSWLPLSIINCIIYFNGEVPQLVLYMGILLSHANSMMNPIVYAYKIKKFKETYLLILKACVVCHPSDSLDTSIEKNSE
- protocol: Radioligand competition binding with 125I-ABA, membranes of HEK 293 cells stably expressing the receptor
- condition-label: Ki derived from IC50, class symbols
pKi: −log10 of the molar value.
measurement-label: pKi

Prompt: Output pKi of Nc1nc(C#CCC2CCN(C(=O)Oc3cccc([N+](=O)[O-])c3)CC2)nc2c1ncn2[C@@H]1O[C@H](C(=O)NC2CC2)C(O)[C@@H]1O (stereo partly drawn)
Response: < 7.00

Prompt: Output pKi of Cc1ccc(OC(=O)N2CCC(CC#Cc3nc(N)c4ncn([C@@H]5O[C@H](CO)[C@@H](O)[C@H]5O)c4n3)CC2)cc1
Response: > 7.00

Prompt: Output pKi of CCNC(=O)[C@H]1O[C@@H](n2cnc3c(N)nc(C#CCC4CCN(C(=O)Oc5ccc(F)cc5)CC4)nc32)[C@@H](O)C1O (stereo partly drawn)
Response: > 8.00

----------
Kindly state Ki for each of the entries shown.
- assay-system: recombinant human A2A receptors (Homo sapiens)
- Construct: expressed in transfected cells; host or cells: Sf9 insect cells infected with virus; membranes
- Sequence (P29274 whole entry): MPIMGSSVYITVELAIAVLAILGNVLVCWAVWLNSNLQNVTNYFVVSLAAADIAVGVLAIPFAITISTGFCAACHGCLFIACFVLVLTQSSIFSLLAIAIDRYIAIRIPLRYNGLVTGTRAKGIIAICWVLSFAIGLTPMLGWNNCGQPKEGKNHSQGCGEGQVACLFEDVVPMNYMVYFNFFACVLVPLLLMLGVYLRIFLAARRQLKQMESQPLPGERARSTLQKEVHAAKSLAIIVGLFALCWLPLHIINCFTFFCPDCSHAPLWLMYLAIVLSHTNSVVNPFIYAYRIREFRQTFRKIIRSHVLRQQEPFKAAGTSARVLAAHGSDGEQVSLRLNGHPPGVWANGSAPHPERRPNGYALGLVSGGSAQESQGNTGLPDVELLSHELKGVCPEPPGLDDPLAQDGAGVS
- protocol: Radioligand competition binding with 125I-APE or 125I-ZM241385, Sf9 cell membranes
- condition-label: 125I-APE or 125I-ZM241385, Sf9 membranes; class symbols

Prompt: Output Ki of N=C(Oc1ccc(F)cc1)N1CCC(CC#Cc2nc(N)c3ncn([C@@H]4O[C@H](C(=O)NC5CC5)[C@@H](O)[C@H]4O)c3n2)CC1 [Compound 41]
Response: < 10 nM

Prompt: Output Ki of Nc1nc(C#CCC2CCN(C(=O)Oc3cccc([N+](=O)[O-])c3)CC2)nc2c1ncn2[C@@H]1O[C@H](C(=O)NC2CC2)C(O)[C@@H]1O (stereo partly drawn) [Compound 56]
Response: < 1 nM

Prompt: Output Ki of Cc1ccc(OC(=O)N2CCC(CC#Cc3nc(N)c4ncn([C@@H]5O[C@H](C(=O)NC6CC6)[C@@H](O)[C@H]5O)c4n3)CC2)cc1C [Compound 47]
Response: < 1 nM

Prompt: Output Ki of CCNC(=O)[C@H]1O[C@@H](n2cnc3c(N)nc(CCCC4CCN(C(=O)Oc5ccc(NO)cc5)CC4)nc32)[C@@H](O)C1O (stereo partly drawn) [Compound 37]
Response: < 1 nM

Prompt: Output Ki of Nc1nc(C#CCC2CCN(C(=O)Oc3cccc(C(F)(F)F)c3)CC2)nc2c1ncn2[C@@H]1O[C@H](CO)C(O)[C@@H]1O (stereo partly drawn) [Compound 6]
Response: < 1 nM

Prompt: Output Ki of COc1ccccc1OC(=O)N1CCC(CC#Cc2nc(N)c3ncn([C@@H]4O[C@H](C(=O)NC5CC5)C(O)[C@@H]4O)c3n2)CC1 (stereo partly drawn) [Compound 21]
Response: < 1 nM

Prompt: Output Ki of Nc1nc(C#CCC2CCN(C(=O)OCc3ccccc3)CC2)nc2c1ncn2[C@@H]1O[C@H](C(=O)NC2CC2)C(O)[C@@H]1O (stereo partly drawn) [Compound 2, reference compound]
Response: < 1 nM

Prompt: Output Ki of CCNC(=O)[C@H]1O[C@@H](n2cnc3c(N)nc(C#CCC4CCN(C(=O)Oc5ccc(F)c(F)c5)CC4)nc32)[C@@H](O)C1O (stereo partly drawn) [Compound 50]
Response: < 1 nM

Prompt: Output Ki of Nc1nc(C#CCC2CCN(C(=O)Oc3cccc(C(F)(F)F)c3)CC2)nc2c1ncn2[C@@H]1O[C@H](C(=O)NC2CC2)C(O)[C@@H]1O (stereo partly drawn) [Compound 3]
Response: < 1 nM

Prompt: Output Ki of Nc1nc(C#CCC2CCN(C(=O)OCCOCc3ccccc3)CC2)nc2c1ncn2[C@@H]1O[C@H](CO)C(O)[C@@H]1O (stereo partly drawn) [Compound 7]
Response: < 1 nM

Prompt: Output Ki of COc1ccc(OC(=O)N2CCC(CC#Cc3nc(N)c4ncn([C@@H]5O[C@H](CO)[C@@H](O)[C@H]5O)c4n3)CC2)cc1 [Compound 28]
Response: < 1 nM

Prompt: Output Ki of Nc1nc(C#CCC2CCN(C(=O)Nc3ccc(F)cc3)CC2)nc2c1ncn2[C@@H]1O[C@H](CO)C(O)[C@@H]1O (stereo partly drawn) [Compound 44]
Response: < 10 nM

Each recorded value in this set is attributed to patent US7888329B2.
